# measured.on: topoisomerase I (top1) (Homo sapiens)
# Sequence (P11387 whole entry, species assumed): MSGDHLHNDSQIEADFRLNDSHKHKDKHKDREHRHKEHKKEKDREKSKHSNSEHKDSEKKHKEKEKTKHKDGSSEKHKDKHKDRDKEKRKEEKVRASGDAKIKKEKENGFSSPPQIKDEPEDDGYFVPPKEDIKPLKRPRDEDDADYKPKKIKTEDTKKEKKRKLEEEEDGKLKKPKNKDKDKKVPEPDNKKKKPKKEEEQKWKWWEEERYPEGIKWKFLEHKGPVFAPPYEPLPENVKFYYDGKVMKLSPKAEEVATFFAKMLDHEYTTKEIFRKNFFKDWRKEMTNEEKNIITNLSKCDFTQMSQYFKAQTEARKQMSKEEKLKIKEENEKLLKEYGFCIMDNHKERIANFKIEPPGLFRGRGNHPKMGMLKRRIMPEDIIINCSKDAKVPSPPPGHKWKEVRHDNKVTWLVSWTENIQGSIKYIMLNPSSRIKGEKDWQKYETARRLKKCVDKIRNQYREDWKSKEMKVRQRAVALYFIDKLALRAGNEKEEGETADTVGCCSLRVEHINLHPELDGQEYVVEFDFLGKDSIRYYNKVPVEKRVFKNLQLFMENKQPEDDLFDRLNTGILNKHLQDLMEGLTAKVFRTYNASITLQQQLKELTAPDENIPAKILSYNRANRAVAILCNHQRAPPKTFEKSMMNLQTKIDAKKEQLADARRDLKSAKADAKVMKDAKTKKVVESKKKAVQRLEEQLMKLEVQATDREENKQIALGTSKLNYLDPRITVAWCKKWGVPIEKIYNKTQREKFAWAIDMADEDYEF
# test.details: topoisomerase I-mediated DNA cleavage
# Assay type: biochemical
# test.context: tested at concentrations ranging up to 10 μM; semi-quantitative
observed.property: Top 1 Cleavage

Study these solved cases before continuing.
Cl.Nc1ccc2c3c(n(CCCCl)c(=O)c2c1)-c1cc2c(cc1C3=O)OCO2 [Compound 18]	0
O=C1c2cc3c(cc2C2C1c1ccc([N+](=O)[O-])cc1C(=O)N2CCCBr)OCO3 (racemic) [Compound 12]	+
O=C1c2ccccc2-c2c1c1ccc([N+](=O)[O-])cc1c(=O)n2CCCBr [Compound 20]	0
O=C1c2cc3c(cc2C2C1c1ccc([N+](=O)[O-])cc1C(=O)N2CCCCl)OCO3 (racemic) [Compound 13]	+
CN1C(=O)c2cc([N+](=O)[O-])ccc2C2C(=O)c3cc4c(cc3C21)OCO4 (racemic) [Compound 14]	+++

Request - read-out Top 1 Cleavage | tested on topoisomerase I (top1) (Homo sapiens) | molecule O=C1c2cc3c(cc2-c2c1c1ccc([N+](=O)[O-])cc1c(=O)n2CCCCl)OCO3 [Compound 15] +++

Request - read-out Top 1 Cleavage | tested on topoisomerase I (top1) (Homo sapiens) | molecule [N-]=[N+]=NCCCn1c2c(c3ccc([N+](=O)[O-])cc3c1=O)C(=O)c1cc3c(cc1-2)OCO3 [Compound 16] ++++
